# System: human neutrophil adhesion to TNF-α-stimulated human umbilical vein endothelial cells (HUVEC)
# Test Summary: Modified method: inhibition of human neutrophil adhesion to TNF-α-stimulated human umbilical vein endothelial cells (calcein-labeled neutrophils)
# Assay type: cell-based
# Details: 100 μM, neutrophils labeled with calcein, read-out: Adhesion ECA, % inhibition
I'd appreciate it if you could supply inhibition at 100 µM values for the items below.
Just the number in %, nothing appended.

Exercise: Look up inhibition at 100 µM for this compound: COc1ccc2c(c1)c(Nc1ccccc1)c(C(N)=O)[s+]2[O-] (stereo not shown)
Key: 21

Exercise: Moving on to CNc1c(C(N)=O)[s+]([O-])c2ccc(OC)cc12 (stereo not shown)
Key: 16

Exercise: Moving on to CC(C)Oc1c(C(=O)Nc2ccccc2)oc2ccccc12
Key: 70

Exercise: Moving on to CC(C)Oc1c(C(=O)NCc2ccccc2)oc2ccccc12
Key: 61

Exercise: Moving on to CC(C)Oc1c(C(N)=O)oc2ccc(-c3ccccc3)cc12
Key: 68

Exercise: Moving on to CC(C)Oc1c(C(N)=O)oc2ccc(Cl)cc12
Key: 52

Exercise: Moving on to CC(C)Oc1c(C(=O)NCc2ccccc2)oc2ccc(Cl)cc12
Key: 95

Exercise: Moving on to COc1ccc2oc(C(=O)NCc3ccccc3)c(OC(C)C)c2c1
Key: 42

Exercise: Moving on to CC(C)NC(=O)c1oc2ccccc2c1OC(C)C
Key: 15

Exercise: Moving on to COc1ccc2oc(C(N)=O)c(OCc3ccccc3)c2c1
Key: 4

Exercise: Moving on to CC(C)Oc1c(C(=O)Nc2ccccc2)oc2ccc(Cl)cc12
Key: 11

Exercise: Moving on to CC(C)Oc1c(C(N)=O)oc2ccccc12
Key: 20

Exercise: Moving on to COc1ccc2c(c1)c(NC(C)C)c(C(N)=O)[s+]2[O-] (stereo not shown)
Key: 7

These measurements were taken from patent US5350748A.
